biological target: mGluR4 (Homo sapiens, UniProt Q14833); assay: mGluR4 potentiation assay (Table I): response to EC20 agonist in presence of compound; assay type: cell-based; conditions: potentiation of mGluR4 agonist response
Sequence (Q14833 whole entry): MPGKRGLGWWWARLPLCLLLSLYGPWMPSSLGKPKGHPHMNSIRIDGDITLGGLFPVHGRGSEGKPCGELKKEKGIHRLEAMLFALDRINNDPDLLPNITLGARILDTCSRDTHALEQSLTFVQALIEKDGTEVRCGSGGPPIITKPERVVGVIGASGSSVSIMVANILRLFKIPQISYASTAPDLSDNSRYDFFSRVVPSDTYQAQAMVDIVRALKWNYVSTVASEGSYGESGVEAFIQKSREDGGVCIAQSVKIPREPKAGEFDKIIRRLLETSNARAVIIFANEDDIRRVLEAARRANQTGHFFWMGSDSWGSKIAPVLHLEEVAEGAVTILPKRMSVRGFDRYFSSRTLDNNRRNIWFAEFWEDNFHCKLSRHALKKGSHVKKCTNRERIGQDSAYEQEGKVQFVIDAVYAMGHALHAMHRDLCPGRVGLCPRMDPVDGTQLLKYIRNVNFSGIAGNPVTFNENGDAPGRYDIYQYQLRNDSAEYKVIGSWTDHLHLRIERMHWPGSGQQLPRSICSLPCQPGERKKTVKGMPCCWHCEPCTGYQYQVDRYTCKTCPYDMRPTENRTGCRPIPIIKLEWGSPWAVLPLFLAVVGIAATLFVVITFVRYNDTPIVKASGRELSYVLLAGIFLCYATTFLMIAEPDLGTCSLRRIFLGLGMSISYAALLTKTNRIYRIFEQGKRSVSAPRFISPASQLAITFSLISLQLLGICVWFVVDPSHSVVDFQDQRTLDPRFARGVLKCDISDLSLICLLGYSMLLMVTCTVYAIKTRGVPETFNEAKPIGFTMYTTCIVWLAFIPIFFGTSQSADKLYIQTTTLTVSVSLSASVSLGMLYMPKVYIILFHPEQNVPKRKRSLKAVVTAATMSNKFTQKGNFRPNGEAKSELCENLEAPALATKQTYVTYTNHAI
readout name: EC50

INSERT INTO measurements (smiles_entry, value_observed) VALUES
  ('O=C(Nc1ccn(S(=O)(=O)c2ccc(F)cc2)c1)c1ccccn1', '280 nM'),
  ('O=C(Nc1ccn(S(=O)(=O)Cc2ccc(Cl)c(Cl)c2)c1)c1ccccn1', '828 nM'),
  ('O=C(Nc1ccn(S(=O)(=O)c2ccc(C(F)(F)F)cc2)c1)c1ccccn1', '413 nM'),
  ('Cc1ccc(S(=O)(=O)n2ccc(NC(=O)c3ccccn3)c2)cc1', '57 nM'),
  ('O=C(Nc1ccn(S(=O)(=O)Cc2ccc(Cl)cc2Cl)c1)c1ccccn1', '445 nM'),
  ('O=C(Nc1ccn(S(=O)(=O)Cc2ccccc2Cl)c1)c1ccccn1', '83 nM'),
  ('Cc1cccc(S(=O)(=O)n2ccc(NC(=O)c3ccccn3)c2)c1', '90 nM'),
  ('N#Cc1cccc(S(=O)(=O)n2ccc(NC(=O)c3ccccn3)c2)c1', '282 nM'),
  ('O=C(Nc1ccn(S(=O)(=O)c2ccc(OC(F)(F)F)cc2)c1)c1ccccn1', '546 nM'),
  ('O=C(Nc1ccn(S(=O)(=O)c2ccc(Cl)cc2)c1)c1ccccn1', '655 nM');
